Please go through the items and note down their activation at 10 µM.
Target: Drosophila OR13a (Drosophila melanogaster, UniProt Q9VXL0)
Construct: expressed in transfected cells
Sequence (Q9VXL0 whole entry): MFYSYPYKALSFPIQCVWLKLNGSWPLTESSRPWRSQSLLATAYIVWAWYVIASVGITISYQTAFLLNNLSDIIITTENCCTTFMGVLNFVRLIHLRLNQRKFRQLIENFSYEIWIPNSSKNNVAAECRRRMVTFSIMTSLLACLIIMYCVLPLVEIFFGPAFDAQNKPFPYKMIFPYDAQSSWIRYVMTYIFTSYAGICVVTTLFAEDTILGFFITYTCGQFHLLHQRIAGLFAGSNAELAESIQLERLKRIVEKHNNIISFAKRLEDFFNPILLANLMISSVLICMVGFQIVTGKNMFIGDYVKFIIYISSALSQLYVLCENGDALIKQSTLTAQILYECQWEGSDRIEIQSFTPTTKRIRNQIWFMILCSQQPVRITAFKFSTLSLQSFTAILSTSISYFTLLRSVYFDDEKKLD
Sequence (Q9VNB5 whole entry partner): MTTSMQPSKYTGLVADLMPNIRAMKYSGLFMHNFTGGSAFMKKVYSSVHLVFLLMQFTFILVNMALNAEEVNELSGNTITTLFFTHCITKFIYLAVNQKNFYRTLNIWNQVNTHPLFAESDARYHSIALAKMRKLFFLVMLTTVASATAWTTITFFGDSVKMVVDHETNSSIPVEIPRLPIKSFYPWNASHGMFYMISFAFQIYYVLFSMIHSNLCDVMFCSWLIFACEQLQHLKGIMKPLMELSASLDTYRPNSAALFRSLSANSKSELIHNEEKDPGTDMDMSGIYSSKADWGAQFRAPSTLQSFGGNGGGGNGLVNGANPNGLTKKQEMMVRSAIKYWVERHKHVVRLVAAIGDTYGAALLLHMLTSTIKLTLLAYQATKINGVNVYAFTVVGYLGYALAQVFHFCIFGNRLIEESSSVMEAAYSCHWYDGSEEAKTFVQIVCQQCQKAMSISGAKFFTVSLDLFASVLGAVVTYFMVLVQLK
Experiment: Calcium ion fluorescence (GCaMP6) assay, OR13a stable HEK293 cell line
Assay type: cell-based
Conditions: HEK293, read-out: OR13a response (VUAA1-normalized response), VOC concentration 10 μM
Numbers only, in %.

Cc1cccc(O)c1 [3-methylphenol] = 0

Could you report activation at 10 µM for every entry in the following list?
1. COc1cccc(OC)c1 [1,3-dimethoxy benzene]
2. CCCCCCCO [1-heptanol]
3. CC(=O)OCC(C)C [isobutyl acetate]
4. CCCCC(C)O (stereo not shown) [2-hexanol]
5. CC1=CCC2C(C1)C2(C)C (stereo not shown) [3-carene]
6. CCCCCC(C)O (stereo not shown) [2-heptanol]

RESULT:
1. 0
2. 15
3. 7
4. 0
5. 0
6. 0
